In this section, each of the variants is paired with its reported enrichment ratio.
B1: PhoQ; a variant is named by its letters at X, in order, P23837 (parent)
chain: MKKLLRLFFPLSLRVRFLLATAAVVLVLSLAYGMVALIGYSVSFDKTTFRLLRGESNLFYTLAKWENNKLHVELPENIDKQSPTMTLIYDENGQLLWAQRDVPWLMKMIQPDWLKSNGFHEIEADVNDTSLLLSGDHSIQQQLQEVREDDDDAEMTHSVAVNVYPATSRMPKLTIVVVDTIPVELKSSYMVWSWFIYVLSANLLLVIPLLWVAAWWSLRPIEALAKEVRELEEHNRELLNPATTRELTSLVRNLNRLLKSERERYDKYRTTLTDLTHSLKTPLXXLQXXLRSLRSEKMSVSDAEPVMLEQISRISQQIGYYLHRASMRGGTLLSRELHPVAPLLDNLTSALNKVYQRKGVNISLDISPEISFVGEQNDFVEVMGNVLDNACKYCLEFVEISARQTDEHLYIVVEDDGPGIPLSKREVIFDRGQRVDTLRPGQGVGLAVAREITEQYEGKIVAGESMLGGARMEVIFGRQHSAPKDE

- Variants of: B1
- test-protocol: enrichment ratio after two sorts for PhoP signalling (ratio (wild type AVST 3.29)); higher = more functional
- condition: with PhoP (E. coli)
Over roughly 140,000 sequences, “enrichment ratio after two sorts for PhoP signalling” has its median near 0; the highest 2% begin near 11. This is one part of a sample in which the highest values are shown more often than they occur.
Please give only the number in your answer, with no unit.

1. SIAD :: 7.06
2. GGML :: 15.7
3. GIML :: 8.24
4. LNML :: 2.48

Task item: Quick one: enrichment ratio of YIGM ?
Reply: 0.38

Task item: And what about the variant WALM ?
Reply: 6.02

Task item: And what about the variant YELS ?
Reply: 14.9

Task item: Similarly, YNML ?
Reply: 13.9

Task item: Also, TALM please.
Reply: 15.3
